Just for reference, PubChem BioAssay is where these values come from.

Test system: Noggin (protein binding on small-molecule microarray)
Assay: Noggin binders on small-molecule microarray, primary screen, biochemical, 635/667 nm fluorescence (AID 1095);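 also: score merges 667 nm feature fluorescence with signal to noise over triplicate slides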
Details: 635 nm fluorescence, higher = more signal

- COMPOUND: "C[C@@H]1C=CCC(=O)OC[C@H]2O[C@@H](C=C[C@@H]2O)[C@H](C)C=CCC(=O)OC[C@H]2O[C@H]1C=C[C@@H]2O"
  composite z-score: 1.37
- COMPOUND: "COc1cc2c(cc1OC)CN(C(=O)[C@@H]1[C@H]3C(=O)O[C@H](c4ccccc4)[C@H](c4ccccc4)N3[C@H](c3ccccc3OCCO)[C@@]13C(=O)Nc1ccccc13)CC2"
  composite z-score: 0.208
- COMPOUND: "COC(=O)[C@@]1(Cc2ccc(OC)cc2)[C@H]2c3cc(C(=O)N(C)C)n(CCc4ccc(OC)c(Br)c4)c3C[C@H]2CN1C(=O)c1ccccc1"
  composite z-score: -0.54
- COMPOUND: "C=CCC(OC(C)=O)[C@@H]1[C@@H](N(Cc2cccc3ccccc23)C(=O)Cc2ccc(F)cc2)c2cc(OCCCO)ccc2N1C(=O)Cc1ccc2ccccc2c1 (stereo partly specified)"
  composite z-score: -0.594
- COMPOUND: "C=CC(=O)O[C@@H](Cc1ccccc1)[C@H]1C2C=CCCC=C2CN1Cc1cccc(Cl)c1 (stereo partly specified)"
  composite z-score: -0.551
- COMPOUND: "C=CCC(OC(C)=O)[C@@H]1[C@@H](N(Cc2ccc(-c3cccc(C(F)(F)F)c3)o2)C(=O)Cc2ccc(F)cc2)c2cc(OCCCO)ccc2N1C(=O)c1ccc(-c2ccccc2)cc1 (stereo partly specified)"
  composite z-score: -0.325

###

Assay: small-molecule microarray binders of probe aCHRDL2, primary screen, biochemical, biotinylated probe, 635/667 nm fluorescence (AID 1100)
Details: higher = more signal
Tick Y if composite z-score is 1 or greater. Tick N if composite z-score is less than 1.

- MOLECULE: "COc1cccc([C@@H]2[C@@H](C)CC[C@H]3C(=O)N4[C@H](c5cccc(OC)c5)[C@@H](C)CC[C@H]4C(=O)N23)c1"
  ASSIGNED_CATEGORY: "N"
- MOLECULE: "C=CC[C@@]1(C(=O)N2CCOCC2)N=C(c2ccc(OCCCO)cc2)O[C@@H]1c1ccccc1"
  ASSIGNED_CATEGORY: "N"
- MOLECULE: "NC(=O)NCC#Cc1ccc2c(c1)[C@]1(C(=O)N2)[C@H](C(=O)N2CCCCCCC2)[C@H]2C(=O)O[C@H](c3ccccc3)[C@H](c3ccccc3)N2[C@@H]1c1ccccc1OCCO"
  ASSIGNED_CATEGORY: "Y"
- MOLECULE: "O=C(NCC(O)CO)[C@]1(Cc2ccccc2)N=C(c2ccc(OCCCO)cc2)O[C@@H]1c1ccccc1 (some centres not stated)"
  ASSIGNED_CATEGORY: "N"
- MOLECULE: "Cc1ccc(S(=O)(=O)N[C@H]2COC(=O)CC=C[C@H](C)COC(=O)N[C@@H](C)C(=O)CC=C[C@@H]2C)cc1"
  ASSIGNED_CATEGORY: "N"
- MOLECULE: "CO[C@H]1COC(=O)[C@H](C)NC(=O)CC=C[C@@H](C)[C@H](NS(=O)(=O)c2ccc(C)cc2)COC(=O)[C@@H](OCc2ccccc2)C=C[C@@H]1C"
  ASSIGNED_CATEGORY: "N"

###

Test system: Human papillomavirus type 1a protein E7 (residues 44-93)
Assay: HPV1a E7 fragment binders on microarrays, primary screen, biochemical, small-molecule microarray, residues 44-93, 635 nm fluorescence (AID 1108);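 also: E7 fragment applied at 1 µg/mL in TBST for 1 h at 4 C; score combines spot fluorescence with its signal to noise ratio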
Details: small-molecule microarray binding, fluorescence 635 nm; higher = more signal

- MOLECULE: "C=CCNC(=O)[C@H]1[C@@H]2C(=O)O[C@@H](c3ccccc3)[C@@H](c3ccccc3)N2[C@@H](c2ccc(O)cc2)[C@]12C(=O)Nc1ccc(C#CCNC(N)=O)cc12"
  ASSAY_SYSTEM: "Human papillomavirus type 1a protein E7 (residues 44-93)"
  composite z-score: 0.0632
- MOLECULE: "C=CC[C@]1(C(N)=O)N=C(c2ccc(OCCCO)cc2)O[C@H]1c1ccccc1CN=[N+]=[N-]"
  ASSAY_SYSTEM: "Human papillomavirus type 1a protein E7 (residues 44-93)"
  composite z-score: 1.03
- MOLECULE: "CO[C@@H]1COC(=O)[C@H](COCc2ccccc2)NC(=O)CC=C[C@@H](C)[C@H](OC)COC(=O)[C@H](COCc2ccccc2)NC(=O)CC=C[C@H]1C"
  ASSAY_SYSTEM: "Human papillomavirus type 1a protein E7 (residues 44-93)"
  composite z-score: -0.417
- MOLECULE: "COC(=O)C(CC#Cc1ccc2c(c1)[C@]1(C(=O)N2)[C@H](C(=O)N2CCCCCCC2)[C@H]2C(=O)O[C@H](c3ccccc3)[C@H](c3ccccc3)N2[C@@H]1c1ccc(O)cc1)C(=O)OC"
  ASSAY_SYSTEM: "Human papillomavirus type 1a protein E7 (residues 44-93)"
  composite z-score: -1.26
- MOLECULE: "CCCNC(=O)[C@@H]1c2ccccc2C(=O)N(Cc2cc(F)cc(C(F)(F)F)c2)[C@H]1c1ccc(CO)cc1"
  ASSAY_SYSTEM: "Human papillomavirus type 1a protein E7 (residues 44-93)"
  composite z-score: 0.0588
- MOLECULE: "CCOC(=O)C[C@H]1[C@H](OC(=O)Cc2ccc3c(c2)OCO3)[C@@H](NC(=O)c2ccc3ccccc3c2)c2cc(OCCCO)ccc2N1C(=O)Cc1ccc(OC)cc1"
  ASSAY_SYSTEM: "Human papillomavirus type 1a protein E7 (residues 44-93)"
  composite z-score: 1.01
- MOLECULE: "CCCC=C(CCC)[C@@H](NC(=O)c1ccc(C(F)(F)F)cc1)c1ccccc1"
  ASSAY_SYSTEM: "Human papillomavirus type 1a protein E7 (residues 44-93)"
  composite z-score: 1.17
- MOLECULE: "COC(=O)[C@@]1(Cc2ccccc2)[C@H]2c3cc(C(=O)N4CCCC4)n(CCN4CNCC4=O)c3C[C@H]2CN1C(=O)c1ccccc1"
  ASSAY_SYSTEM: "Human papillomavirus type 1a protein E7 (residues 44-93)"
  composite z-score: 0.871
- MOLECULE: "O=C1O[C@@H](c2ccccc2)[C@@H](c2ccccc2)N2[C@@H](c3ccc(OCCO)cc3)[C@]3(C(=O)Nc4ccc(C#CCCO)cc43)[C@@H](C(=O)N3CCN(c4ncccn4)CC3)[C@H]12"
  ASSAY_SYSTEM: "Human papillomavirus type 1a protein E7 (residues 44-93)"
  composite z-score: 1.44
- MOLECULE: "C[N+](C)(C)CCCCNC(=O)[C@H]1C[C@H]2C(=O)NCC(=O)N2[C@H]1c1cccc(OCCO)c1"
  ASSAY_SYSTEM: "Human papillomavirus type 1a protein E7 (residues 44-93)"
  composite z-score: 0.296
- MOLECULE: "CC(c1ccccc1)C(O)C1C=CC2C(=O)N(C)C(=O)C2N1N(c1ccccc1)c1ccccc1 (centres undefined)"
  ASSAY_SYSTEM: "Human papillomavirus type 1a protein E7 (residues 44-93)"
  composite z-score: -0.304
- MOLECULE: "CO[C@H]1COC(=O)CC=C[C@H](C)COC(=O)[C@@H](OCc2ccccc2)C=C[C@@H]1C"
  ASSAY_SYSTEM: "Human papillomavirus type 1a protein E7 (residues 44-93)"
  composite z-score: -0.217
- MOLECULE: "COc1ccc([Si](C)(C)[C@@H]2[C@@H](CCO)O[C@]3(C(=O)N(Cc4ccccc4)c4ccccc43)[C@H]2C)cc1"
  ASSAY_SYSTEM: "Human papillomavirus type 1a protein E7 (residues 44-93)"
  composite z-score: 0.566
- MOLECULE: "C=CC[C@@]12N=C(c3ccc(OCCCO)cc3)O[C@@H]1c1ccccc1CN(Cc1ccccc1)C2=O"
  ASSAY_SYSTEM: "Human papillomavirus type 1a protein E7 (residues 44-93)"
  composite z-score: 1.17

###

Target: NADPH oxidase 4 (Homo sapiens)
Assay: NOX4-dependent H2O2 signal modulators, primary screen, NOX inhibitor project, cell-based, HEK293-NOX4, tetracycline-induced, Amplex Red fluorescence (AID 1160)
Details: 45 min, higher = more signal, called active from +8 up or from −8 down

- MOLECULE: "CCCNC(=O)[C@@]1(Sc2ccc(C)cc2)CC(=O)N(Cc2ccccc2Cl)[C@@H]1c1ccc(CO)cc1"
  ASSAY_SYSTEM: "NADPH oxidase 4 (Homo sapiens)"
  z-score: -0.99
- MOLECULE: "Cc1ccc(S[C@]2(C(=O)O)CC(=O)N(Cc3cc(C(F)(F)F)cc(C(F)(F)F)c3)[C@@H]2c2ccc(CO)cc2I)cc1"
  ASSAY_SYSTEM: "NADPH oxidase 4 (Homo sapiens)"
  z-score: -2.5
- MOLECULE: "CCOC(=O)C[C@H]1[C@H](OC(=O)c2cc3ccccc3oc2=O)[C@@H](NC(=O)c2ccc3ccccc3c2)c2cc(OCCCO)ccc2N1C(=O)c1ccc2ccccc2n1"
  ASSAY_SYSTEM: "NADPH oxidase 4 (Homo sapiens)"
  z-score: 0.873
- MOLECULE: "CCCC=C(CCC)[C@@H](NC(=O)c1ccccc1)c1ccccc1"
  ASSAY_SYSTEM: "NADPH oxidase 4 (Homo sapiens)"
  z-score: 0.304
- MOLECULE: "C=CC[C@]1(C(N)=O)N=C(c2ccc(OCCCO)cc2)O[C@H]1c1ccccc1CN=[N+]=[N-]"
  ASSAY_SYSTEM: "NADPH oxidase 4 (Homo sapiens)"
  z-score: -0.202
- MOLECULE: "CN1C2C=C(c3ccc(CO)cc3)C(C3C(=O)N(C(N)=O)C(=O)C32)C1c1cccs1 (configuration not stated)"
  ASSAY_SYSTEM: "NADPH oxidase 4 (Homo sapiens)"
  z-score: -0.124
- MOLECULE: "NC(=O)NCC#Cc1ccc2c(c1)[C@]1(C(=O)N2)[C@H](C(=O)N2CCCCCCC2)[C@H]2C(=O)O[C@H](c3ccccc3)[C@H](c3ccccc3)N2[C@@H]1c1ccccc1OCCO"
  ASSAY_SYSTEM: "NADPH oxidase 4 (Homo sapiens)"
  z-score: 1.36
